assay: cytotoxicity; assay type: cell-based; conditions: human, HEp-2 cells
REPORTED_ENDPOINT: CC50

Request: Identify measured CC50 associated with NC(=O)c1ncn([C@@H]2O[C@H](CO)[C@@H](O)[C@H]2O)n1
Response: > 50 µM

----------
test system: respiratory syncytial virus (RSV); assay: cytopathic effect; assay type: cell-based, strain A2; details: human respiratory syncytial virus, HEp-2, read-out: IC50 ± SD (50% inhibition concentration), anti-RSV activity
REPORTED_ENDPOINT: pIC50
Bear in mind: pIC50 is minus log10 of a mol/L concentration; give just that figure.

Request: Report the value of pIC50 obtained on respiratory syncytial virus (RSV) for NC(=O)c1ncn([C@@H]2O[C@H](CO)[C@@H](O)[C@H]2O)n1 .
Response: 4.82
